Data credit: patent US20250270180A1

- test-description: Single dose PK profile (plasma and tumor) in Colon26 tumor bearing mice
- Format: in vivo
- run-conditions: female, athymic BALB/c nude or BALB/c, mouse, po, 100 mg/kg; plasma; 100 mpk p.o.
- Method: Female mice (either athymic BALC/c nude, or BALB/c mice) were inoculated with a single subcutaneous injection of 0.1 ml of mouse Colon-26 cell suspension (1×10^5 cells per animal) in the right flank region. […]
Hi there, I'd appreciate the recorded half-life for every entry that follows.
One number for each entry, in h.

{"chemical-smiles": "CNS(=O)(=O)Nc1cccc(Cc2c(CN3CCC3)c3ccc(OC(=O)N(C)C)cc3oc2=O)c1F", "endpoint-result": 1.38}

Exercise: // query half-life value for entry `CNS(=O)(=O)Nc1cccc(Cc2c(CN(C)C)c3ccc(OC(=O)N(C)C)cc3oc2=O)c1F`
Solution: 1.22
